Target: T1, Sumo-SiwR (Mycobacterium smegmatis, UniProt A0QS56 1-320)
T1 sequence: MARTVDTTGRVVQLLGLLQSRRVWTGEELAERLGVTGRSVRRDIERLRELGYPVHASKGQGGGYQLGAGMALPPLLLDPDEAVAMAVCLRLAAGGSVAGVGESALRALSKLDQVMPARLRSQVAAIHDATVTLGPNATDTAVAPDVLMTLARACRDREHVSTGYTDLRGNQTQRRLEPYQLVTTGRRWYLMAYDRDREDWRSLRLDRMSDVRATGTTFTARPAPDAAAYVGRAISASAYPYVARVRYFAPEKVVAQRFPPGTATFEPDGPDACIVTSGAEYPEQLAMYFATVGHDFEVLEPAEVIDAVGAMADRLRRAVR
Assay: fluorescence anisotropy; EMSA: 5 mM HEPES-KOH pH 7.0, 30 mM NaCl, 2.5% Ficoll 400K, 1% glycerol, 5 nM probe (10 nM in Fig. 2a legend), 37 °C 15 min; anisotropy: 5 mM HEPES-KOH pH 7, 30
Settings: protein: recombinant; tags: His6-TEV-Sumo N-terminal fusion; chain copies: 2; label: FAM on strand 1; 12 bp duplex, 3' overhang 12 nt on strand 1
quantity-name: Kd (nM)

[[record]]
binder = "3' tailed DNA (dsDNA) DNA 1: GCAGTCAGGTCAATCCGACGACTG DNA 2: TGACCTGACTGC"
quantity_name = "Kd"
unit_abbrev = "nM"
endpoint_value = 702

